# tested_system: A1B2D1R 5HTBP mutant (Aplysia californica, UniProt Q8WSF8)
# Sequence (Q8WSF8 entry or part of it, change not shown): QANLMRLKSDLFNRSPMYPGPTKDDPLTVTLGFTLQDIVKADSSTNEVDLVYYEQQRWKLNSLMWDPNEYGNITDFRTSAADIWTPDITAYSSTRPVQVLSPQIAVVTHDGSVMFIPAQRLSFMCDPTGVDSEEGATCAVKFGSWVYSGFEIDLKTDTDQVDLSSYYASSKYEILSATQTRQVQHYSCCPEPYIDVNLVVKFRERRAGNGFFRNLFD
# assay_details: Radioligand binding assay with [3H]-granisetron (SPA)
# experimental_conditions: read-out: Ki RLB (A1B2D1R 5HTBP mutant); [3H]-granisetron 1.99 nM
# Procedure: The competitive radioligand-binding assay was performed as described by Kesters et al. 2013 [10]. His-tagged A1B2D1R 5HTBP was diluted in buffer (10 mM HEPES/0.05% Tween) to obtain 50 ng binding protein per well. […] The concentration of the radioligand [3H]-granisetron (Perkin-Elmer, Life Science, Groningen, The Netherlands, specific activity ~85 Ci/mmol) was 1.99 nM. After addition of PVT Copper His-Tag SPA beads (final concentration 2 mg/mL), the final well volume was 100 µL. […]
Structures can show the parent of a compound that is named as a salt.
reported_endpoint: log10(Ki) (log10 of the value in µM)
# log10 transformed; quantity=Ki; unit=µM

Consider the following illustrative entries.
>  <compound>
NCCc1c[nH]c2ccc(F)cc12 [5-fluorotryptamine HCL]

>  <log10(Ki)>
2.00

$$$$
>  <compound>
CN1CCN2c3ncccc3Cc3ccccc3C2C1 (stereo not shown)

>  <log10(Ki)>
0.97

$$$$
>  <compound>
CN1[C@@H]2CC[C@H]1C[C@@H](OC(=O)c1c[nH]c3ccccc13)C2

>  <log10(Ki)>
-2.00

$$$$
>  <compound>
COc1cc(N)c(Cl)cc1C(=O)NC1CN2CCC1CC2 (stereo not shown) [zacopride]

>  <log10(Ki)>
0.21

$$$$
>  <compound>
O=C1c2cccc3c2[C@H](CCC3)CN1[C@@H]1CN2CCC1CC2

>  <log10(Ki)>
-0.29

$$$$
>  <compound>
CN1C2CCCC1CC(NC(=O)c1nn(C)c3ccccc13)C2 (stereo not shown)

>  <log10(Ki)>
-1.30

$$$$

# ---- query compound ----
compound c1ccc2nc(N3CCNCC3)ccc2c1 , log10(Ki) observed: 1.73

###

Each entry below lists one item and its recorded pKi value.
# tested_system: A1B2D1R 5HTBP mutant (Aplysia californica)
# assay_details: Fluorescence enhancement microplate reader assay (DAHBA tracer)
# Format: binding
# experimental_conditions: plate reader assay, read-out: Ki fluorescence enhancement (A1B2D1R 5HTBP mutant)
# Experimental: Next, specific and non-specific binding was determined by measuring a tracer saturation curve with and without a displacing ligand. […] Fourteen 5-HT3R ligands, also binding to the 5HTBP [10], were selected for this experiment. The measured Ki values for both the fluorescence enhancement plate reader assay as well as those measured with the radioligand binding assay are listed (Supplementary Information Table S1). […]
Convention used: pKi is expressed as -log10 of the molar concentration.

# example entries with known answers
>  <compound>
C=CCN1CCc2nc(N)sc2CC1

>  <pKi>
5.41

$$$$
>  <compound>
Cn1cc(C(=O)C(=O)NC2CN3CCC2CC3)c2ccccc21 (stereo not shown)

>  <pKi>
5.45

$$$$
>  <compound>
CN1CCN(c2nc3ccccc3nc2Cl)CC1

>  <pKi>
4.94

$$$$

Briefly, pKi measured for NC1CCN(c2cccc(Cl)n2)CC1 : 4.07

###

# tested_system: A1B2D1R 5HTBP mutant (Aplysia californica)
# assay_details: Fluorescence enhancement microplate reader assay (DAHBA tracer)
# Type: binding
# experimental_conditions: read-out: Ki fluorescence enhancement (A1B2D1R 5HTBP mutant), plate reader assay
pKi: −log10 of the molar value. Where a name gives a salt, the structure may show the parent alone.
pKi vs 6: at or above is Y, below is N.

Consider the following illustrative entries.
>  <compound>
CN1C2CCCC1CC(NC(=O)c1nn(C)c3ccccc13)C2 (stereo not shown)

>  <class_label>
Y

$$$$
>  <compound>
O=C1c2cccc3c2[C@H](CCC3)CN1[C@@H]1CN2CCC1CC2

>  <class_label>
N

$$$$

Request: Tell me whether pKi is at least 6 here: CN1[C@@H]2CC[C@H]1C[C@@H](OC(=O)c1c[nH]c3ccccc13)C2
Result: Y

Request: Is it the case that COc1cc(N)c(Cl)cc1C(=O)NC1CN2CCC1CC2 (stereo not shown) [zacopride] has pKi reaching or exceeding 6?
Result: N

Request: Form field: pKi at least 6? Entry: CN1CCN2c3ncccc3Cc3ccccc3C2C1 (stereo not shown)
Result: N

Request: Given the entry NCCc1c[nH]c2ccc(F)cc12 [5-fluorotryptamine HCL] , answer whether its pKi meets or surpasses 6.
Result: N

Request: For this compound, is measured pKi 6 or higher? c1ccc2nc(N3CCNCC3)ccc2c1
Result: N
